molecular target: STK11 CAB39 STRADA (human) (UniProt Q9Y376+Q7RTN6+Q15831); assay: radiometric filter-binding kinase assay; settings: compound 1.0 µM
Sequence (Q15831 whole entry, looked up): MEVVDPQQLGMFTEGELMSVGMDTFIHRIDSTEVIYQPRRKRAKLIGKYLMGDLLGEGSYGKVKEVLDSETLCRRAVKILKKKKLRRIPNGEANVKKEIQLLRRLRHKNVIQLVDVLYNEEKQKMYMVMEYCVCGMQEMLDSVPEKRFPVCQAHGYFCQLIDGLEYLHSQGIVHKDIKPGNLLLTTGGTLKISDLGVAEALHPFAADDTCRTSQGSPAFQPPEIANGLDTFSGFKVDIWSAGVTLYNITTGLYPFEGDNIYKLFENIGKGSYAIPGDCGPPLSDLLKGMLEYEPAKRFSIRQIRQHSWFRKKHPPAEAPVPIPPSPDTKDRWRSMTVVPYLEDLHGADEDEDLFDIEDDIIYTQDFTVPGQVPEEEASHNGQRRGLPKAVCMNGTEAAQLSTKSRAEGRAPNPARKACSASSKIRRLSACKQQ
Sequence (Q7RTN6 whole entry, looked up): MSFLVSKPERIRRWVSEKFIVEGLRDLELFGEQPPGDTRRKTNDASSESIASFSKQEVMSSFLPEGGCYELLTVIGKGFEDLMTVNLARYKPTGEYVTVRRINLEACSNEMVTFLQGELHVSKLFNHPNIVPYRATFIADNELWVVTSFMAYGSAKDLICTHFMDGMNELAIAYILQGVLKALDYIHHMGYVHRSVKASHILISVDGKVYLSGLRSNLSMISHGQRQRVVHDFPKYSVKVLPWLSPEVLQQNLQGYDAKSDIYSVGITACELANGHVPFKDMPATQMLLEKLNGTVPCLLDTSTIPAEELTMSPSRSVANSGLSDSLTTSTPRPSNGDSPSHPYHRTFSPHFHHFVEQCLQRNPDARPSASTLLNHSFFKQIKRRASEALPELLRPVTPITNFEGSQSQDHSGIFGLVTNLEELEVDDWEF
Sequence (Q9Y376 whole entry, looked up): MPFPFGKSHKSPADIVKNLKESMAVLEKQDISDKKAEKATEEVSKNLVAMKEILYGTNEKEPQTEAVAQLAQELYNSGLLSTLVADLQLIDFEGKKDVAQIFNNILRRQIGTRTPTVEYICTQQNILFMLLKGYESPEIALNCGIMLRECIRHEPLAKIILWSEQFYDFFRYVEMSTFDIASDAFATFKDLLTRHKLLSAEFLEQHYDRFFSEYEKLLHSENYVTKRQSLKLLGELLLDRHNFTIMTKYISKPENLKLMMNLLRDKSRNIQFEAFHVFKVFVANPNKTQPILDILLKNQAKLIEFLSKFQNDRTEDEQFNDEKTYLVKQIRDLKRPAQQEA
Would you mind telling me the reported residual activity of each entry?
I only need the number, in %, no unit after it.

# return recorded residual activity for input FC(F)(F)c1ccc(-c2ccc(Oc3cncc4sc(-c5nn[nH]n5)cc34)cc2)cc1
85

# return recorded residual activity for input Cc1nc(-c2ccc(OCC(C)C)c(C#N)c2)sc1C(=O)O
86

# return recorded residual activity for input Oc1ccc2ccccc2c1SSc1c(O)ccc2ccccc12
60

# return recorded residual activity for input NC(=O)c1ccc(-c2ccc(Oc3cncc4sc(-c5nn[nH]n5)cc34)cc2)cc1
80

# return recorded residual activity for input CNC(=O)C1[C@H]2O[C@@](C)([C@@H]1N)n1c3ccccc3c3c4c(c5c6ccccc6n2c5c31)C(=O)NC4 (some centres undefined)
35

# return recorded residual activity for input COc1cc(O)c2c(c1)/C=C/C[C@H](O)[C@H](O)C(=O)/C=C\C[C@H](C)OC2=O
65

# return recorded residual activity for input O=C(Nc1nc2cc(C(F)(F)F)cc(NC3CC3)n2n1)c1cccnc1
105

# return recorded residual activity for input c1ccc2c(-c3cnn4cc(-c5ccc(N6CCNCC6)cc5)cnc34)ccnc2c1
98

# return recorded residual activity for input NCC(=O)Nc1ccc(-n2nc(C(F)(F)F)cc2-c2ccc3c(ccc4ccccc43)c2)cc1
103

* * *

biological target: PRKCZ (human) (UniProt Q05513); test: radiometric filter-binding kinase assay; conditions: compound 10.0 µM
Sequence (Q05513 whole entry, looked up): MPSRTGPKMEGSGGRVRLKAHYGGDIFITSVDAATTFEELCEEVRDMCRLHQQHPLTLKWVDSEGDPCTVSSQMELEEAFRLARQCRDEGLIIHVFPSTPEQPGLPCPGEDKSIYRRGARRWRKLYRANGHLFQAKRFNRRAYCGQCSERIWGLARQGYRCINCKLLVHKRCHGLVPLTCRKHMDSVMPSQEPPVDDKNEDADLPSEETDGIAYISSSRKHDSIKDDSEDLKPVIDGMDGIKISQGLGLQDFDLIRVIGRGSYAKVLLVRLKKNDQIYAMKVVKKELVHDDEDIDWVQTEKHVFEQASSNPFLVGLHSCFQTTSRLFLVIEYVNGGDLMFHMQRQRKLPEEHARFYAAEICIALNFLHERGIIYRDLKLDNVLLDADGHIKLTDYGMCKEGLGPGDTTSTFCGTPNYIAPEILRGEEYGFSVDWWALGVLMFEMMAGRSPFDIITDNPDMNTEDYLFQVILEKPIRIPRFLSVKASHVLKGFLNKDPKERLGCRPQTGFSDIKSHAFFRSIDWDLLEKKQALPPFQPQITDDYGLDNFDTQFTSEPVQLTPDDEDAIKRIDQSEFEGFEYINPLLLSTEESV
Classify on residual activity using lower range (below 40%), middle range (40% to below 80%), upper range (80% or more)

Class (by measured residual activity) for NC(=O)Nc1ccc2c(c1)/C(=C/c1cc(-c3cccnc3)c[nH]1)C(=O)N2
lower range

Class (by measured residual activity) for CCc1cncnc1N1CCN(Cc2nc3cc(C(F)(F)F)ccc3[nH]2)CC1
middle range

Class (by measured residual activity) for O=C(O)c1cc(N=Nc2ccc(S(=O)(=O)Nc3ccccn3)cc2)ccc1O
upper range

Class (by measured residual activity) for O=c1c(O)c(-c2ccc(O)c(O)c2)oc2cc(O)c(O)c(O)c12
lower range

Class (by measured residual activity) for Cc1ccc(Sc2cnc(Nc3cccc(Br)n3)s2)cc1C(=O)N1CCN(C(=O)CN)CC1
middle range

Class (by measured residual activity) for CN1C(=O)[C@@H](Cc2c[nH]c3ccccc23)NC1=S
upper range

Class (by measured residual activity) for O=C1Nc2nc(-c3c(O)cccc3OCC3CC3)cc(C3CCCNC3)c2CO1 (stereo not given)
lower range

Class (by measured residual activity) for CC1=C(CO)C(=O)O[C@@H]([C@@H](C)[C@H]2CC[C@H]3[C@@H]4C[C@H]5O[C@]56[C@@H](O)C=CC(=O)[C@]6(C)C4CC[C@]23C)C1 (stereo not given in full)
upper range

Class (by measured residual activity) for CCCCCc1ccc(/C=C/[C@H](O)[C@@H](CO)NC)cc1
upper range

* * *

Would you mind telling me the reported residual activity of each entry?
target: MAPK3 (human); experiment: radiometric filter-binding kinase assay; conditions: compound 0.01 µM
I only need the number, in %, no unit after it.

# return recorded residual activity for input COc1ccc(N(C(=O)Nc2c(C)cccc2C)c2cc(Nc3ccc(N4CCN(C)CC4)cc3)ncn2)c(OC)c1
104

# return recorded residual activity for input CNc1nc(-c2ccc3c(N)n[nH]c3c2)cc(N2C[C@@H](C(=O)NC3CCCCC3)CC[C@H]2C)n1
93

# return recorded residual activity for input C/C(=C1/C(=O)Nc2ccc(NC(N)=O)cc21)c1ccc[nH]1
89

# return recorded residual activity for input O=C(Nc1nc2cc(C(F)(F)F)cc(NC3CC3)n2n1)c1cccnc1
120

# return recorded residual activity for input COc1cc(O)c2c(c1)[C@H]1OC1C[C@H](O)[C@H](O)C(=O)/C=C\C[C@H](C)OC2=O (stereo not given in full)
111

Data origin, for the record: the kinase profiling compilation of Christmann-Franck et al. (2016)
